Where a name gives a salt, the structure may show the parent alone.
# human FXa (Homo sapiens, UniProt P00742): IC50 values follow
# Sequence (P00742 235-488 limits assumed): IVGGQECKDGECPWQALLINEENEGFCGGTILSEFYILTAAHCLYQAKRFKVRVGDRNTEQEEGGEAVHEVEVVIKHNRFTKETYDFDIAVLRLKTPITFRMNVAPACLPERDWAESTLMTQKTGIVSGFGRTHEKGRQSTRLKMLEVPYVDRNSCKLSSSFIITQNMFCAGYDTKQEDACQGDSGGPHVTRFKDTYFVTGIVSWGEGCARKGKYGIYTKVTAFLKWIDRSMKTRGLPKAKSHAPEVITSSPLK
# Sequence (P00742 41-179 partner limits assumed): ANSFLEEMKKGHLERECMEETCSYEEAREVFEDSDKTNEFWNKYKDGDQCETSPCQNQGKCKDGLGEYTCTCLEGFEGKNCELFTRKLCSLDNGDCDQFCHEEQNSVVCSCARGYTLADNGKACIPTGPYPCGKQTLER
Numeric answer only, unit nM assumed.

Input line: Quote human FXa (Homo sapiens, UniProt P00742) IC50 for entry CN1CCc2nc(C(=O)N[C@@H]3C[C@@H](n4cccc4)CC[C@@H]3NC(=O)C(=O)Nc3ccc(Cl)cn3)sc2C1 [Ex. 413, hydrochloride] .
Output line: 1

Input line: Quote human FXa (Homo sapiens, UniProt P00742) IC50 for entry CN1CCc2nc(C(=O)N[C@@H]3C[C@@H](n4cnnc4)CC[C@@H]3NC(=O)C(=O)Nc3ccc(Cl)cn3)sc2C1 [Ex. 394, hydrochloride] .
Output line: 1.1

Input line: Quote human FXa (Homo sapiens, UniProt P00742) IC50 for entry Cc1nnc([C@H]2CC[C@H](NC(=O)C(=O)Nc3ccc(Br)cn3)[C@H](NC(=O)c3nc4c(s3)CN(C)CC4)C2)o1 [Ex. 396, hydrochloride] .
Output line: 1.1

Input line: Quote human FXa (Homo sapiens, UniProt P00742) IC50 for entry Cc1nnc([C@H]2CC[C@H](NC(=O)C(=O)Nc3ccc(Cl)cn3)[C@H](NC(=O)c3nc4c(s3)CN(C)CC4)C2)o1 [Ex. 384, hydrochloride] .
Output line: 1
